- Assay name: gradient 5% acetonitrile 3 min, to 50% in 2 min, to 85% in 15 min, held 3 min, 100 µL/min
- Condition: column: Zorbax Extend-C18 2.1 x 50 mm; eluents: water / acetonitrile, 0.1% formic acid
Criterion: RP-LC retention time meeting or surpassing 900 s. Met: condition met. Not met: condition not met.

Query: Test whether the molecule COc1ccc(C)cc1NC(=O)CN1C(=O)NC2(CCC(C)CC2)C1=O (stereo not drawn) records RP-LC retention time of 900 s or higher.
Reply: condition not met

====

- Assay name: gradient 5% acetonitrile 3 min, to 50% in 2 min, to 85% in 15 min, held 3 min, 100 µL/min
- Condition: column: Zorbax Extend-C18 2.1 x 50 mm; eluents: water / acetonitrile, 0.1% formic acid
Please use TRUE for RP-LC retention time under 1000 s and FALSE for everything else, ties included.

Known results for molecules:
Cc1noc(-c2ccnc(-n3cnc(C(=O)NC(C)c4ccc(F)cc4)c3)c2)n1 (stereo not drawn) ... TRUE
Cc1ccc(-c2noc(-c3sccc3NC(=O)c3ccnn3C)n2)cc1 ... FALSE
Cc1cc(Cl)ccc1NC(=O)CC1COc2ccccc2NC1=O (stereo not drawn) ... TRUE
Cc1noc(-c2nc(-c3ccc(OC(C)C)cc3)no2)n1 ... FALSE
Cc1cc(N2CCN(S(=O)(=O)c3ccc(F)c(F)c3)CC2)nc(N2CCCC2)n1 ... TRUE
CCc1nc2cc(-c3noc(COc4cccc(Cl)c4)n3)ccc2o1 ... FALSE

Query: RP-LC retention time strictly < 1000 s for this molecule? Cc1cc(C(=O)Nc2ccc(F)cc2)nc2ccnn12
Reply: TRUE

Query: RP-LC retention time strictly < 1000 s for this molecule? CCc1ccc(NC(=O)N2CCC(OC3CCN(S(C)(=O)=O)CC3)CC2)cc1
Reply: TRUE

Query: RP-LC retention time strictly < 1000 s for this molecule? Cc1cccc(NC(=O)N2CCC(CN3CCCC(C)C3)CC2)c1C (stereo not drawn)
Reply: TRUE

Query: RP-LC retention time strictly < 1000 s for this molecule? CCOC(=O)N1CCN(C(=O)CSc2nnc(C3COc4ccccc4O3)o2)CC1 (stereo not drawn)
Reply: TRUE
